- System: MDA-MB-468 breast
- Assay summary: NCI-60 one-dose screen, 48 h
- Test settings: 10 µM unless noted
- Protocol: Growth inhibition of the MDA-MB-468 human Breast tumor cell line is measured as a screen for anti-cancer activity. Cells are grown in 96 well plates and exposed to the test compound for 48 hours. Compounds are tested at a single concentration, which is 10^-5 M for most compounds. The reported endpoint is percent growth (GI% or GIPRCNT), where numbers from 0 - 100% represent growth inhibition, and numbers from -100% - 0 represent cell death. […]
This is part of a sample that, as a whole, favours compounds with a hit. Of some 83,000 tested, about 20% had one in any assay. The source made the active and inactive calls. The calls were made as follows: active = growth percent below 10; inactive = the rest.
Possible outcomes: active, inactive

Molecular string: CC(C)N=C(N/C(N)=N/c1nc2ccccc2s1)NC(C)C
Group label: inactive
//
Molecular string: O=C(CSc1nc2ccccc2c(=O)n1-c1ccccc1)N/N=C/c1ccc(Oc2ccc(Cl)cc2)cc1
Group label: inactive
//
Molecular string: N#C/C(=C\c1ccc(-c2ccc(Cl)cc2Cl)o1)c1ccc(F)cc1
Group label: inactive
//
Molecular string: C=C(C)[C@@H]1CC[C@]2(C(=O)OCCOCCOCC[P+](c3ccccc3)(c3ccccc3)c3ccccc3)CC[C@]3(C)[C@H](CC[C@@H]4[C@@]5(C)CC[C@H](C)C(C)(C)[C@@H]5CC[C@]43C)[C@@H]12
Group label: active
//
Molecular string: O=C(NNC(=O)c1ccc(NC(=O)c2ccccn2)cc1)Nc1ccc([N+](=O)[O-])cc1
Group label: inactive
//
Molecular string: O=C(OCc1ncc(-c2ccc(C(F)(F)F)cc2)c(NC2CCCCCC2)n1)c1c(F)c(F)c(F)c(F)c1F
Group label: inactive
//
Molecular string: Cn1cc(-c2cc3nc(-c4c[nH]c5ccccc45)cc(N)n3n2)c2cc(Cl)ccc21
Group label: active
//
Molecular string: N=C(N)c1ccc(-c2ccc(-c3ccc(F)cc3)s2)nc1
Group label: inactive
